# methodNotes: Plasma pharmacokinetics of CX-5461 (HPLC-MS/MS, non-compartmental)
# Format: in vivo, human
# measurementSetup: human, plasma, intravenous, 100 mg/m2, 100 mg/m2; Time 48; individual patients; read-out: Day 1 CX-5461 plasma concentration
measuredEndpoint: concentration at 48 h (ng/mL)

>>> recordedresult("Cc1cnc(CNC(=O)c2c(=O)c3ccc(N4CCCN(C)CC4)nc3n3c2sc2ccccc23)cn1")
44.7

====

# methodNotes: Plasma pharmacokinetics of CX-5461 (HPLC-MS/MS, non-compartmental)
# Assay type: in vivo, human
# measurementSetup: human, plasma, intravenous, 475 mg/m2, Dose level 475 (mg/m2); one patient per datapoint; read-out: Day 1 AUC
measuredEndpoint: AUC (ng·h/mL)

>>> recordedresult("Cc1cnc(CNC(=O)c2c(=O)c3ccc(N4CCCN(C)CC4)nc3n3c2sc2ccccc23)cn1")
15800

====

# methodNotes: Plasma pharmacokinetics of CX-5461 (HPLC-MS/MS, non-compartmental)
# Type: in vivo, human
# measurementSetup: human, plasma, intravenous, 475 mg/m2, 475 mg/m2; Time 0; individual patients; read-out: Day 1 CX-5461 plasma concentration
measuredEndpoint: concentration at 0 h (ng/mL)

>>> recordedresult("Cc1cnc(CNC(=O)c2c(=O)c3ccc(N4CCCN(C)CC4)nc3n3c2sc2ccccc23)cn1")
1540

====

# methodNotes: Plasma pharmacokinetics of CX-5461 (HPLC-MS/MS, non-compartmental)
# Format: in vivo, human
# measurementSetup: human, plasma, intravenous, 250 mg/m2, 250 mg/m2; Time 0.5; individual patients; read-out: Day 1 CX-5461 plasma concentration
measuredEndpoint: concentration at 0.5 h (ng/mL)

>>> recordedresult("Cc1cnc(CNC(=O)c2c(=O)c3ccc(N4CCCN(C)CC4)nc3n3c2sc2ccccc23)cn1")
420

====

# methodNotes: Plasma pharmacokinetics of CX-5461 (HPLC-MS/MS, non-compartmental)
# Format: in vivo, human
# measurementSetup: human, plasma, intravenous, 150 mg/m2, 150 mg/m2; Time 0; individual patients; read-out: Day 1 CX-5461 plasma concentration
measuredEndpoint: concentration at 0 h (ng/mL)

>>> recordedresult("Cc1cnc(CNC(=O)c2c(=O)c3ccc(N4CCCN(C)CC4)nc3n3c2sc2ccccc23)cn1")
465

====

# methodNotes: Plasma pharmacokinetics of CX-5461 (HPLC-MS/MS, non-compartmental)
# Assay type: in vivo, human
# measurementSetup: human, plasma, intravenous, 100 mg/m2, Dose level 100 (mg/m2); one patient per datapoint; read-out: Day 1 AUC
measuredEndpoint: AUC

>>> recordedresult("Cc1cnc(CNC(=O)c2c(=O)c3ccc(N4CCCN(C)CC4)nc3n3c2sc2ccccc23)cn1")
"5240 ng·h/mL"

====

# methodNotes: Plasma pharmacokinetics of CX-5461 (HPLC-MS/MS, non-compartmental)
# Format: in vivo, human
# measurementSetup: human, plasma, intravenous, 250 mg/m2, Dose level 250 (mg/m2); one patient per datapoint; read-out: Day 8 or 15 AUC
measuredEndpoint: AUC (ng·h/mL)

>>> recordedresult("Cc1cnc(CNC(=O)c2c(=O)c3ccc(N4CCCN(C)CC4)nc3n3c2sc2ccccc23)cn1 [CX-5461]")
19000

====

# methodNotes: Plasma pharmacokinetics of CX-5461 (HPLC-MS/MS, non-compartmental)
# Type: in vivo, human
# measurementSetup: human, plasma, intravenous, 650 mg/m2, 650 mg/m2; Time 4; individual patients; read-out: Day 1 CX-5461 plasma concentration
measuredEndpoint: concentration at 4 h (ng/mL)

>>> recordedresult("Cc1cnc(CNC(=O)c2c(=O)c3ccc(N4CCCN(C)CC4)nc3n3c2sc2ccccc23)cn1 [CX-5461]")
495
